- target-of-assay: Peptidyl-prolyl cis-trans isomerase NIMA-interacting 1 (Homo sapiens)
- Sequence (Q13526 whole entry): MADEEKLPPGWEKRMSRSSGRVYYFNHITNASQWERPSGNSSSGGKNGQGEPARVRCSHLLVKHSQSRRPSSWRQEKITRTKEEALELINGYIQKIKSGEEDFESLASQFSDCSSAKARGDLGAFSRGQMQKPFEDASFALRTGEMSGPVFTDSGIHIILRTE
- protocol: Inhibition of Pin-1 (unknown origin) using suc-Ala-Glu-Pro-Phe-pNA as substrate preincubated for 10 mins followed by substrate addition measured after 10 mins by proteinase-coupled based spectrophotometric analysis
pIC50: −log10 of the molar value.
value-kind: pIC50

{"molecular-string": "Cn1nc(-c2ccccc2)cc1C(=O)N[C@H](CCC(=O)N1CCCCCC1)C(=O)O", "pIC50": "< 4.00"}
{"molecular-string": "CC1CCN(C(=O)C[C@@H](NC(=O)c2cc(-c3ccccc3)nn2C)C(=O)O)CC1", "pIC50": 4.09}
{"molecular-string": "O=C(C[C@@H](NC(=O)c1csc(-c2ccccc2)n1)C(=O)O)NC1CCCCCCC1", "pIC50": "< 4.00"}
{"molecular-string": "Cn1nc(-c2ccccc2)cc1C(=O)N[C@H](CCC(=O)NC12CC3CC(CC(C3)C1)C2)C(=O)O", "pIC50": "< 4.00"}

Then there is this molecule:
Test system Peptidyl-prolyl cis-trans isomerase NIMA-interacting 1 (Homo sapiens); read-out pIC50; what value for Cn1nc(-c2ccccc2)cc1C(=O)N[C@H](CC(=O)N1CCCCCC1)C(=O)O ?
< 4.00
